experiment: water solubility; assay type: physicochemical; details: in water (substance/water)
ASSAY_READOUT: solubility

Measured solubility, NCCCCCC(=O)O : > 500 mg/mL
